# assay.summary: inhibition of endothelial tube formation, primary screen, imaging, VEGF stimulated, CD31 staining, tube area, NPC library (AID 1117340)
# condition.details: VEGF-stimulated ADSC/ECFC co-culture, at 10 µM, active compounds read high
value.type: tube area decrease (%)
Return type: number; implicit unit %.

GET /value?item= COc1ccnc(CS(=O)c2nc3ccc(OC(F)F)cc3[nH]2)c1OC (configuration not stated) &field=tube area decrease returns -16.8

Reported tube area decrease ( "CN(C)CCCN1c2ccccc2Sc2ccc(C(F)(F)F)cc21" ) = 45.1

// field: tube area decrease; key: "O=C(NCCO[N+](=O)[O-])c1cccnc1" ; value = -25.1

tube area decrease for COc1cc2c(cc1OC)C(=O)C(CC1CCN(Cc3ccccc3)CC1)C2 (configuration not stated) is 17.7

Looking up "Cc1oncc1C(=O)Nc1ccc(C(F)(F)F)cc1" , I found its tube area decrease recorded as 32

Item: "Oc1c(Cl)cc(Cl)c(Cl)c1Cc1c(O)c(Cl)cc(Cl)c1Cl" | tube area decrease: 108

Field tube area decrease (entry NC1CCN(c2nc3c(cc2F)c(=O)c(C(=O)O)cn3-c2ccc(F)cc2F)C1 (configuration not stated) ) reads 3.6

"Nc1nc(N)nc(-c2cc(Cl)ccc2Cl)n1" yielded tube area decrease of -11.3

Notebook: "Cc1cn([C@H]2C=C[C@@H](CO)O2)c(=O)[nH]c1=O" , tube area decrease read as -1.6

For record CC1CCC(NC(=O)N(CCCl)N=O)CC1 (configuration not stated) the listed tube area decrease is 25.1

Input COc1ccccc1N1CCN(CC(O)COc2cccc3ccccc23)CC1 (configuration not stated) . Output tube area decrease: 35.4

# tube area decrease of "Cc1cc(NC(=O)C2=C(O)c3ccccc3S(=O)(=O)N2C)no1" = 14.8

====

# assay.system: Mitogen-activated protein kinase 7 (Homo sapiens)
# assay.summary: Gal4-ERK5 driven luciferase induction – cell-based, HTS, primary screen (AID 1508626);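 further: luciferase driven by Gal4-ERK5 fusion binding five Gal4 sites before minimal TATA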
# condition.details: HeLa Gal4-ERK5 transactivation, 18 h, at 5 µM, active compounds read high
Calls of active or inactive are those of the source.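 How the source made its calls: active means luciferase signal above three times the same-plate solvent-only control wells; inactive means the rest.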
# Lookup of reported luciferase signal keyed by entry

// luciferase signal value for "Cc1c(C(=O)O)c(O)cc2c1C(=O)c1c(O)c([C@@H]3O[C@H](CO)[C@@H](O)[C@H](O)[C@H]3O)c(O)c(O)c1C2=O" : 52 AU (inactive)

Lab note: "NC(=O)NO" gave luciferase signal of 44 AU (inactive)

Record "CCOc1ccc2nc3cc(N)ccc3c(N)c2c1" , field luciferase signal: 32 AU (inactive)

Field luciferase signal (entry "NC(N)=NS(=O)(=O)c1ccc(N)cc1" ) reads 188 AU (inactive)

Form: compound = "Cn1c(=O)c2c(ncn2C)n(C)c1=O" ; luciferase signal = 32 AU (inactive)

luciferase signal for CC(Cc1cccc(C(F)(F)F)c1)NCCOC(=O)c1ccccc1 (stereo unspecified) is 84 AU (inactive)

Lab book: luciferase signal of "NC(=NCCCCCCN=C(N)/N=C(\N)Nc1ccc(Cl)cc1)/N=C(\N)Nc1ccc(Cl)cc1" noted as 32 AU (inactive)

// field: luciferase signal; key: "Cc1cc2cc3c(C)cc(=O)oc3c(C)c2o1" ; value = 104 AU (inactive)

Item: "CCN(CC)Cc1cc(Nc2ccnc3cc(Cl)ccc23)ccc1O" | luciferase signal: 60 AU (inactive)

Kindly note the recorded luciferase signal for "CC(=O)Oc1ccc(C(c2ccc(OC(C)=O)cc2)c2ccccn2)cc1" , which is 44 AU (inactive)

---
Field luciferase signal (entry "NC(N)=Nc1nc(CSCC/C(N)=N/S(N)(=O)=O)cs1" ) reads 72 AU (inactive)
